Experiment: NCI Yeast Anticancer Drug Screen. Data for the mgt1 strain (AID 153)
Conditions: S. cerevisiae mgt1 mutant growth inhibition; at 11.0 µM; hits give high values
The panel holds about 79,000 compounds, 15% with a hit somewhere; the sample as a whole holds those more often.
measurement.type: growth inhibition (%)

molecule="Cc1cccc(C)c1NC(=O)CCC(=O)C(C)C(=O)c1ccc(O)cc1 (configuration not stated)" measurement_type="growth inhibition" experimental_value=-3
molecule=O=C(C#Cc1ccccc1)Nc1ccccc1 measurement_type="growth inhibition" experimental_value=-4
molecule="N#CCCC1C(C#N)C2(Cl)CC1(Cl)C(Cl)=C2Cl (configuration not stated)" measurement_type="growth inhibition" experimental_value=-38
molecule=O=c1c2ccccc2nc(-c2cccc([N+](=O)[O-])c2)n1O measurement_type="growth inhibition" experimental_value=52
molecule=CN(C)CCNc1ccc2ncn3c4ccc(O)cc4c(=O)c1c23 measurement_type="growth inhibition" experimental_value=-19
molecule=NCCCSc1ccccc1 measurement_type="growth inhibition" experimental_value=-4
molecule=CN(N=O)C(=O)Nc1ccc(C(=O)O)cc1 measurement_type="growth inhibition" experimental_value=15

====

Reported growth inhibition values for the following molecules.
Assay: NCI Yeast Anticancer Drug Screen. Data for the sgs1 mgt1 strain (AID 161);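 also: 0% = growth of cultures given vehicle only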
Settings: S. cerevisiae sgs1 mgt1 strain, at 50.0 µM (retest, dose inferred, filed as 5.0), hits give high values
The panel holds about 79,000 compounds, 15% with a hit somewhere; the sample as a whole holds those more often.
measurement.type: growth inhibition (%)

molecule=CCOC(=O)Nc1ccc(C)c(NC(=O)OCC)c1 experimental_value=57
molecule=CC1=CC(C)(C)SC(SSSC2=NC(C)=CC(C)(C)S2)=N1 experimental_value=61
molecule="CC(C(=O)N1C(=O)N(C(=O)C(C)C(O)c2ccccc2)C2CCCCC21)C(O)c1ccccc1 (stereo unspecified)" experimental_value=11
molecule="COc1ccc2cc(C(C)C(=O)N3CCOC3=O)ccc2c1 (stereo unspecified)" experimental_value=37
molecule=Nc1cccc(-c2cc[cH-]c2)c1.[Fe+2].c1cc[cH-]c1 experimental_value=7
molecule=Cc1cccc(/C=N/NC(=S)NC2CCCCC2)n1 experimental_value=51
molecule=COc1ccc2cc3c4cc5c(cc4cc[n+]3cc2c1OC)OCO5 experimental_value=97
molecule=O=[N+]([O-])c1ccc(/C=C\c2ccc3c(c2)OCO3)c([N+](=O)[O-])c1 experimental_value=88
molecule=CC1(C)CC(=O)C(C=NC(=S)C(N)=S)=C(O)C1 experimental_value=8
molecule="COc1ccc(C(OCC2OC(n3cnc4c(=O)n(Cc5ccccc5[N+](=O)[O-])nnc43)C(O)C2O)(c2ccccc2)c2ccc(OC)cc2)cc1 (stereo unspecified)" experimental_value=97
molecule=Cc1cc(Cl)ccc1NC(=O)/C(Cl)=C(/Cl)C(=O)O experimental_value=37
molecule=c1ccc2c(c1)ccn2CCc1c[nH]c2ccccc12 experimental_value=25
molecule=O=S(=O)(NNc1ccccc1)c1ccccc1 experimental_value=9
molecule=O=[N+]([O-])c1cn[n+]([O-])c2ccccc12 experimental_value=99
molecule="COc1ccc2c(c1)CCCC(Br)C2=O (stereo unspecified)" experimental_value=90
molecule="O=S(=O)(NC1CCCC(c2ccccc2)C1)c1ccccc1 (stereo unspecified)" experimental_value=23
molecule=c1c[nH]c(CN2CCN(Cc3ncc[nH]3)CC2)n1 experimental_value=99
molecule=C=CCNC1=C2C[C@@H](C)C[C@H](OC)[C@H](O)[C@@H](C)/C=C(\C)[C@H](OC(N)=O)[C@@H](OC)/C=C\C=C(/C)C(=O)NC(=CC1=O)C2=O experimental_value=96
molecule=O=C(NCCCCN(CCCNC(=O)C(F)(F)F)Cc1ccccc1)C(F)(F)F experimental_value=-11
molecule=CCCCCCNCCCNc1c2cc(OC)ccc2nc2cccc([N+](=O)[O-])c12 experimental_value=97
molecule="COC1/C=C\\C=C(/C)C(=O)NC2=CC(=O)C(=O)C(=C2O)CC(C)CC(OC)C(O)C(C)/C=C(\\C)C1OC(N)=O (stereo unspecified)" experimental_value=95
